target: mushroom tyrosinase (Agaricus bisporus, UniProt C7FF04); construct: purchased Sigma-Aldrich Chemical Company (St. Louis, MO) and MP Biomedicals (Irvine, CA); assay: In vitro mushroom tyrosinase inhibition assay; assay type: biochemical; conditions: 500 µM, single-concentration screen; read-out: % Inhibition of tyrosinase
Sequence (C7FF04 1-392 limits assumed): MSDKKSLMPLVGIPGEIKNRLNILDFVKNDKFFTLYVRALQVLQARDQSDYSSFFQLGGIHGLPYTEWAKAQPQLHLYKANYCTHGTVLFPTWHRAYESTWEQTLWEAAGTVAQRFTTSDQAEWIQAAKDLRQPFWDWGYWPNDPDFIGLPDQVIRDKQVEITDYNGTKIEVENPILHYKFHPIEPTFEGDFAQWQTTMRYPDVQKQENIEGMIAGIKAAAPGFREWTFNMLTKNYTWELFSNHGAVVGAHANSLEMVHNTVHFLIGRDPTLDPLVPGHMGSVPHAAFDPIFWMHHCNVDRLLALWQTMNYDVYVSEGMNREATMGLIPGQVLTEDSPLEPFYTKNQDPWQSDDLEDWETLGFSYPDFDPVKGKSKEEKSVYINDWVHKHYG
measured.parameter: inhibition at 500 µM (%)
Quick reminder: number only, in %, skip the unit.

compound="CCc1c(C)n[nH]c1C [P1, 4-Ethyl-3,5-dimethyl-1H-pyrazole]" test_value=6.77
compound=COc1ccc(-n2nc(C)cc2-c2ccccc2)cc1 test_value=92.2

Task item: What value of measured inhibition at 500 µM is listed for `Cc1cc(-c2ccccc2)n(-c2ccc(Cl)cc2)n1` ?
Reply: 95.6

Task item: Next: CC1=NN(c2ccccc2)C(=O)C1(C)O (stereo not shown)
Reply: 39.7

====

experiment: DPPH free radical scavenging assay; conditions: N.A. = No Activity; > 1000 = not biologically relevant; read-out: IC50 Value, DPPH antioxidant activity (Table S4)
Below, each entry is listed alongside its reported pIC50.
Just so you know, pIC50 here is -log10 of the concentration in molar units; reply with that number alone.

See these solved cases before continuing.
compound=O=C1CC(c2ccc(Br)cc2)=NN1c1ccc(Br)cc1 test_value=3.56
compound=O=C1CC(c2ccccc2)=NN1c1ccccc1 test_value=3.45
compound=O=C1CC(c2ccc(Br)cc2)=NN1c1ccccc1 test_value=3.35
compound=O=C1CC(c2ccccc2)=NN1c1ccc(Br)cc1 test_value=3.72
compound="Cc1[nH]nc2c1ccc1ccccc12 [P6, 3-Methyl-2H-benzo[g]indazole]" test_value=4.51

Task item: What value of measured pIC50 is listed for `O=C1CC(c2ccc(Br)cc2)=NN1c1ccc(C(F)(F)F)cc1` ?
Reply: 3.71

====

system: GFP-A431; assay: MTT antiproliferative/cytotoxicity assay, A431; format: cell-based, human; settings: Homo sapiens, A-431, 48 h, non-melanoma, MTT, 48 h; read-out: IC50 GFP-A431
measured.parameter: pIC50
Just so you know, pIC50 here is -log10 of the concentration in molar units; reply with that number alone.

See these solved cases before continuing.
compound="Cc1onc2c1CCc1ccccc1-2 [P12]" measured_parameter=pIC50 test_value=4.26
compound="Cc1nn(-c2ccccc2)c2c1CCC2 [P8]" measured_parameter=pIC50 test_value=4.14
compound="Cc1[nH]nc2c1ccc1ccccc12 [P6, 3-Methyl-2H-benzo[g]indazole]" measured_parameter=pIC50 test_value=4.16
compound="Cc1c2c(nn1-c1ccccc1)-c1ccccc1CC2 [P9]" measured_parameter=pIC50 test_value=4.55
compound="CCc1c(C)nn(-c2ccccc2)c1C [P7]" measured_parameter=pIC50 test_value=4.32
compound="O=C1CC(c2ccc(Br)cc2)=NN1c1ccc(Br)cc1 [P22]" measured_parameter=pIC50 test_value=4.89
compound="O=C1CC(c2ccc(Br)cc2)=NN1c1ccccc1 [P24]" measured_parameter=pIC50 test_value=4.73
compound="Cc1[nH]nc2c1CCc1ccccc1-2 [P5, 3-Methyl-4,5-dihydro-2H-benzo[g]indazole]" measured_parameter=pIC50 test_value=4.38
compound="O=C1CC(c2ccc(Br)cc2)=NN1c1ccc(C(F)(F)F)cc1 [P23]" measured_parameter=pIC50 test_value=4.62
compound="Cc1cc(-c2ccccc2)n[nH]1 [P3, 5-Methyl-3-phenyl-1H-pyrazole]" measured_parameter=pIC50 test_value=4.57

Task item: What value of measured pIC50 is listed for Cc1cc(-c2ccccc2)n(-c2ccc(Cl)cc2)n1 [P17] ?
Reply: 4.71

Task item: Next: Cc1cc(-c2ccccc2)n(-c2ccccc2)n1 [P14, 3-Methyl-1,5-diphenyl-1H-pyrazole]
Reply: 4.75

Task item: Next: CCc1c(C)n[nH]c1C [P1, 4-Ethyl-3,5-dimethyl-1H-pyrazole]
Reply: 4.38

Task item: Next: O=C1CC(c2ccccc2)=NN1c1ccc(Br)cc1 [P25]
Reply: 5.43

Task item: Next: CC1=NN(c2ccccc2)C(=O)C1(C)O (stereo not shown) [P20]
Reply: 3.92

Task item: Next: FC(F)(F)c1cc(-c2ccccc2)n(-c2ccccc2)n1 [P15]
Reply: 4.37

Task item: Next: COc1ccc(-n2nc(C)cc2-c2ccccc2)cc1 [P18]
Reply: 4.59

Task item: Next: Cc1n[nH]c2c1CCC2 [P2]
Reply: 4.36

Task item: Next: Cc1cc(-c2ccccc2)no1 [P11, 5-Methyl-3-phenylisoxazole]
Reply: 4.36

Task item: Next: c1ccc(-c2cc(-c3ccccc3)n(-c3ccccc3)n2)cc1 [P13, 1,3,5-Triphenyl-1H-pyrazole]
Reply: 3.74

Task item: Next: Cc1[nH]nc(-c2ccccc2)c1Cl [P4, 4-Chloro-5-methyl-3-phenyl-1H-pyrazole]
Reply: 4.15

Task item: Next: Cc1cc(-c2ccccc2)n(-c2ccc(Br)cc2)n1 [P16]
Reply: 4.68
